Value source: the supplement of paper PMC12042874

assay: amyloid nucleation score (Sup35N fusion, yeast selection) (log enrichment); library NNK3; higher = more nucleation; inactive = no reads after selection;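 also: zero at mode of non-aggregating sequences after 7 days selection at 30°C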
MEASURE_NAME: amyloid nucleation score

| SUBSTANCE | amyloid nucleation score |
| --- | --- |
| GFLLFLAVWRDTIGIVLVVL | inactive |
| FKASSGWLDLWD | inactive |
| GWKLSSVGNKRDCSSMHVDR | 0.101 |
| DYIEGLECVFRDPARIFLWG | -0.226 |
| YWSAVHEDYHTASMMEPLWW | inactive |
| ISVVFSGKNSLKEMRMKMAG | 0.469 |
| CMHGKGHSTFINNKDPVKVR | inactive |
| FNVRRHHYYGMCPLLISRVR | inactive |

Could you tell me amyloid nucleation score for each of these substances? They are listed below.
1. SLRFCWILGENQSGTCSIKR
2. APLSNFALHIPEELRLESSF
3. LTRLSRNHVVRWRYIREGGW
4. GLLMSMRSFFSGQVQNGAVL
5. AFVGRWYCGFVASVIFEMQG

1. 1.16
2. 0.176
3. inactive
4. inactive
5. 0.069

Batch lookup, amyloid nucleation score per entry.
1. LNYFISLSGRSLPVSCNQIY
2. QRYSLHDINEDYRYDWVNGL
3. NRSIIVIWWNSRSSSNSWVG
4. VFLYTNKYRYGCCGFAFTPF
5. PRGIDG

inactive
inactive
2.1
inactive
inactive

Would you be so kind as to report amyloid nucleation score for each listed record?
1. MTGLLMSKTARFCRRNR
2. KWNNCDF
3. HVFLLHVMAFYFDLSCFG
4. RCQATWWNIIFFAIGDCDLL
5. AGSCVMFGPSW
6. DVGTCSLLNGHKYFFRFNVV
7. YFRGPF
8. GFIVSRERLNVMVLFSVYW

1. inactive
2. inactive
3. inactive
4. inactive
5. inactive
6. inactive
7. inactive
8. inactive

Can you give me amyloid nucleation score for all of these, one by one?
1. LSYNRKEYGNRPGFSEYSST
2. VGYTNLVFGDLLLFCMFNWD

1: inactive; 2: 0.109

Look at each substance and report its amyloid nucleation score.
1. LPGCSTWFGVFFIHDFNLTL
2. LGESMGRHVKRNKSAPERGM
3. HMIRAVFLSCMSASILVTIK
4. RDCTMYNTYFIWNIYPG
5. KFSCSDNPE
6. ETGMLCSGYCKGVCARDDPG
7. ASFSMG

[1.69, "inactive", -0.366, 3.42, "inactive", "inactive", "inactive"]

Complete the entry with amyloid nucleation score for SFVHGKLILKFRSVNASRQS inactive

====

test: amyloid nucleation score (Sup35N fusion, yeast selection) (log enrichment); library NNK3; higher = more nucleation; inactive = no reads after selection
MEASURE_NAME: amyloid nucleation score

// worked examples, amyloid nucleation score included
| SUBSTANCE | EXPERIMENTAL_RESULT |
| --- | --- |
| YIYDSLWW | inactive |
| YSLVYAYMESTMYYCLGLRM | inactive |
| PDHSHHCV | inactive |
| GSSDNGFFCSLNMN | inactive |
| GTQCWLILCADNLNVLGIGL | 2.58 |
| FFCSGS | inactive |

# batch: return amyloid nucleation score for each of the 6 substances below
1. SAPKWGGTYDRVCTISNFTV
2. GSYSNAHTPQF
3. MLGLCPFKSDWLLIYRSMWC
4. DGNLWMKSVCCWTKVFIELL
5. RPFLSMS
6. SLALFFGIHPNLCFTDTSST

["inactive", 0.695, 1.32, 1.37, "inactive", 0.559]

Please go through the list and note amyloid nucleation score for each substance.
1. TGMVCNLTWVLYLMLMNRTF
2. SFRYAYWLSNNCH
3. YYLNKVVSIVNRLFVAFAPC

1: inactive; 2: 0.378; 3: inactive

====

test: amyloid nucleation score (Sup35N fusion, yeast selection) (log enrichment); library NNK3; higher = more nucleation; inactive = no reads after selection
MEASURE_NAME: amyloid nucleation score

// below: answered substances
| SUBSTANCE | amyloid nucleation score |
| --- | --- |
| RLLSAV | inactive |
| SANSQYDI | inactive |
| MTYVGGSVQYGRSLRHRIDR | inactive |
| CRWEVCVVLFLMNCDKNGSC | inactive |
| ILMELPRRRMWSLKALSLMY | inactive |

Look up amyloid nucleation score for the entries below, preserving their order.
1. FLEWEGFRVCIENHMELLRF
2. SVILCFSV
3. NMFVILRFVMHKIKMFNRF
4. HRRSMQLWG
5. QYICTLTCSYFLGSMTIEHK
6. LPLLTYSSVSVRPLTSW

1: inactive; 2: inactive; 3: 1.51; 4: inactive; 5: -0.022; 6: inactive

Each substance below has a recorded value; state its amyloid nucleation score.
1. YSMRRTDIHPVVFRQ
2. CKCVNLQFAVTIHCGGFVPF

1. inactive
2. 2.52

====

assay: amyloid nucleation score (Sup35N fusion, yeast selection) (log enrichment); library NNK1; higher = more nucleation; inactive = no reads after selection
I'd appreciate it if you could label each record using amyloid nucleation score and these ranges: low: < -0.6; intermediate: ≥ -0.6 and < 0.9; high: ≥ 0.9

| SEQUENCE_INPUT | CLASS_NAME |
| --- | --- |
| SRYALLIYVLEDGCLAVLKP | intermediate |
| RVAPKGNRARDHVDSSSECS | high |
| VTSLCYRNFFGVVEVLRYCQ | intermediate |
| VYAILKDFFYFFGVNFFCCF | high |
| GLYKYYRSLILSLVSFNFS | high |
| YHLTQYDTMLLQYMWNHDWD | low |
| VGSIVELSVHTTSDEKVSCR | intermediate |
| WNMLPSIPGDRGWLDGVPVV | intermediate |

Which bin, given its amyloid nucleation score, does TKCIINEIVDDG occupy? low

State the band of VVRDRNYPFYLIIGRSVVLG high

The entry to classify is CYATMYAQGDRRSGDGCLPT ; which class holds it? low

Where would LGCYTLESLGEYDNSNNWLL land among the classes by reported amyloid nucleation score? high

====

test: amyloid nucleation score (Sup35N fusion, yeast selection) (log enrichment); library NNK3; higher = more nucleation; inactive = no reads after selection
MEASURE_NAME: amyloid nucleation score

| SUBSTANCE | amyloid nucleation score |
| --- | --- |
| SQFLLGSQ | inactive |
| IVRHVVYVSCGIQYCDHFWH | inactive |
| FLCMMTVVYQFVWMMMQGAV | inactive |
| VYCLRWKLYMLNEVS | inactive |
| VSGSEFLDFKQLVYTLDAAC | 0.481 |
| VRTLPDLLPINRKQMVKERM | inactive |
| GNSVRIAWQVWCTLCMTRQW | 0.356 |
| MGYPTISFCFNVYAFSVRIV | 0.697 |
| QELLPIRYLVE | inactive |
| DECSAHSSFQLSKSILFGQV | inactive |

I have 5 substances here; please give me amyloid nucleation score for each one.
1. NRGFYQ
2. YYSGCVLIRRILYLGRVGSP
3. KTMDPILQFFERSTASLLLI
4. AFINMMWNSTMDLCRPFLPT
5. YGILLFGVSWWWAVSFFENF

1. inactive
2. inactive
3. inactive
4. 0.698
5. inactive

Would you mind listing amyloid nucleation score for each of the following substances?
1. YYLCVVPLRLLGRCASWSFG
2. FAICSYANAEVSWKDGESAY

1. inactive
2. inactive

====

Assignment: determine reported amyloid nucleation score for the given substances.
test: amyloid nucleation score (Sup35N fusion, yeast selection) (log enrichment); library NNK1; higher = more nucleation; inactive = no reads after selection
One number for each entry.

Sample answers from the record:
| SUBSTANCE | amyloid nucleation score |
| --- | --- |
| GRSTNSSDISNHMRNS | 0.961 |
| VTQFSVWLVLRICGLTLRWY | 0.31 |
| DTAWNLVQSVS | 0.496 |
| YLRLFFVRCGHPDSETSYRS | 0.418 |
| GLSLIA | 0.983 |

Go through the list and state amyloid nucleation score for each entry.
1. GISSVG
2. ALPAMTQDKWHMNALRNYLD
3. IFCSNECVSTVDADTPGLSL
4. LPTIHICLRSAHTRWFA
5. GRVQGNFLINRVCRWWGVAG
6. AYTEMNLRIVERYSMNTIRP

0.677
1.48
9.29
-0.438
0.182
2.14

I'm hoping you can list amyloid nucleation score for every substance here, please.
1. LLQNNCHLYYCLNGLVFRVR
2. TNRWADQTNKDAHRQTCD
3. LKNSRYSKLFIESMTWWLVY
4. IRYQFVWSMSLCGLEMHWSS

1. 0.162
2. -0.591
3. 0.087
4. 2.55

Batch: amyloid nucleation score for all items listed.
1. YLLYEVSVLNYRPL
2. VKMNVYYLIILNLWSYVMLG

-0.285
-0.994
